src = the supplement of paper PMC7877785

Recorded self-splicing fitness (ln) by entry
# assay: self-splicing fitness, log relative to wild type (ln ratio); higher = more splicing; Tetrahymena group I intron in knt gene, E. coli kanamycin selection, DiMSum; sequences stand for … in CUCUCU…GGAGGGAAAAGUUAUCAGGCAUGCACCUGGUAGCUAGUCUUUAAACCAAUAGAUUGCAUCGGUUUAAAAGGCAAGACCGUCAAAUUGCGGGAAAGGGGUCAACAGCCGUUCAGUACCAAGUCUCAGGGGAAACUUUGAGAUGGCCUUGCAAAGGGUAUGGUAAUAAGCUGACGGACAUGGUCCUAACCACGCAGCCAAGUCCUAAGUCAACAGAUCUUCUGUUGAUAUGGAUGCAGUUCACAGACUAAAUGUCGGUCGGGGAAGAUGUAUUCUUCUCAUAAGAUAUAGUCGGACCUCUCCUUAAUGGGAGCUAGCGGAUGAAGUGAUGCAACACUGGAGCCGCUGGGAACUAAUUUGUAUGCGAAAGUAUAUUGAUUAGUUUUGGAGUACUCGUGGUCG;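 further: selection with 25 µg/mL kanamycin versus none on LB agar overnight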
# measurement.parameters: 30 °C

>  <residue.sequence>
AUCAAGCAAUAUUACGAGAA

>  <self-splicing fitness (ln)>
-1.21

$$$$
>  <residue.sequence>
CAAGAGCAAUAUUACGCUGG

>  <self-splicing fitness (ln)>
-3.84

$$$$
>  <residue.sequence>
AAAUAGCAAUAUUACGUUCA

>  <self-splicing fitness (ln)>
-0.751

$$$$
>  <residue.sequence>
GCUAAGCAAUAUUACGUUCU

>  <self-splicing fitness (ln)>
-1.04

$$$$
>  <residue.sequence>
UUAAAGCAAUAUUACGUUCA

>  <self-splicing fitness (ln)>
0.284

$$$$
>  <residue.sequence>
ACUGAGCAAUAUUACGCAUC

>  <self-splicing fitness (ln)>
-2.22

$$$$
>  <residue.sequence>
CACUAGCAAUAUUACGACCA

>  <self-splicing fitness (ln)>
-1.18

$$$$
>  <residue.sequence>
CGACAGCAAUAUUACGCGUC

>  <self-splicing fitness (ln)>
-1.94

$$$$
>  <residue.sequence>
CUGGAGCAAUAUUACGAACG

>  <self-splicing fitness (ln)>
-0.869

$$$$
>  <residue.sequence>
GGGCAGCAAUAUUACGGGAC

>  <self-splicing fitness (ln)>
-2.3

$$$$

----------
# assay: self-splicing fitness, log relative to wild type (ln ratio); higher = more splicing; Tetrahymena group I intron in knt gene, E. coli kanamycin selection, DiMSum; sequences stand for … in CUCUCU…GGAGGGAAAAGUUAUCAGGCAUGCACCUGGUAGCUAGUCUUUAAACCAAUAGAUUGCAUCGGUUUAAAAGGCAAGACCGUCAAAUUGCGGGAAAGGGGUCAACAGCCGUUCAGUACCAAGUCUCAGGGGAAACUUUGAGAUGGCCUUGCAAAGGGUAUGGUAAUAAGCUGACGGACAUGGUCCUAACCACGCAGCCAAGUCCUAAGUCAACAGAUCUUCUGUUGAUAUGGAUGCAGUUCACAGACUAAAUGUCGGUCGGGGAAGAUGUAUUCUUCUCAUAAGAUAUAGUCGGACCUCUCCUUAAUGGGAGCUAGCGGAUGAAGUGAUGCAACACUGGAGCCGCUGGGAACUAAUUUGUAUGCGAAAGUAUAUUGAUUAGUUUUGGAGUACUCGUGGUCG
# measurement.parameters: 37 °C
Label criterion met when self-splicing fitness (ln) is at or above -2; otherwise label criterion not met.

>  <residue.sequence>
UCGUAGCAAUAUUACGCUCG

>  <group.label>
criterion met

$$$$
>  <residue.sequence>
AUGCAGCAAUAUUACGUUCU

>  <group.label>
criterion met

$$$$
>  <residue.sequence>
CAUUAGCAAUAUUACGCUAU

>  <group.label>
criterion not met

$$$$
>  <residue.sequence>
CUGCAGCAAUAUUACGGCCG

>  <group.label>
criterion met

$$$$
>  <residue.sequence>
UCACAGCAAUAUUACGCCAG

>  <group.label>
criterion met

$$$$
>  <residue.sequence>
UAAAAGCAAUAUUACGGAGU

>  <group.label>
criterion not met

$$$$
>  <residue.sequence>
GCUCAGCAAUAUUACGCAAC

>  <group.label>
criterion met

$$$$
>  <residue.sequence>
CCAUAGCAAUAUUACGGCGG

>  <group.label>
criterion met

$$$$
>  <residue.sequence>
CUCAAGCAAUAUUACGCGUU

>  <group.label>
criterion not met

$$$$
>  <residue.sequence>
AGGUAGCAAUAUUACGACGU

>  <group.label>
criterion met

$$$$
>  <residue.sequence>
UGGCAGCAAUAUUACGCGUU

>  <group.label>
criterion met

$$$$
>  <residue.sequence>
CGCCAGCAAUAUUACGUCUA

>  <group.label>
criterion not met

$$$$
>  <residue.sequence>
ACUGAGCAAUAUUACGUAGU

>  <group.label>
criterion not met

$$$$
>  <residue.sequence>
UGGUAGCAAUAUUACGCUAU

>  <group.label>
criterion not met

$$$$
>  <residue.sequence>
GGGCAGCAAUAUUACGUAUA

>  <group.label>
criterion met

$$$$
>  <residue.sequence>
ACACAGCAAUAUUACGCACA

>  <group.label>
criterion met

$$$$
>  <residue.sequence>
CGCAAGCAAUAUUACGUUUC

>  <group.label>
criterion not met

$$$$
>  <residue.sequence>
UACCAGCAAUAUUACGGAAC

>  <group.label>
criterion not met

$$$$
>  <residue.sequence>
CGAUAGCAAUAUUACGGUGC

>  <group.label>
criterion not met

$$$$
>  <residue.sequence>
UCAUAGCAAUAUUACGGAAA

>  <group.label>
criterion not met

$$$$
>  <residue.sequence>
CCUCAGCAAUAUUACGUGCG

>  <group.label>
criterion met

$$$$
>  <residue.sequence>
GGUGAGCAAUAUUACGCAUU

>  <group.label>
criterion met

$$$$
>  <residue.sequence>
CACAAGCAAUAUUACGGGGA

>  <group.label>
criterion met

$$$$
>  <residue.sequence>
CCUUAGCAAUAUUACGCACA

>  <group.label>
criterion met

$$$$
>  <residue.sequence>
CCAGAGCAAUAUUACGAGCG

>  <group.label>
criterion met

$$$$

----------
# assay: self-splicing fitness, log relative to wild type (ln ratio); higher = more splicing; Tetrahymena group I intron in knt gene, E. coli kanamycin selection, DiMSum; sequences stand for … in CUCUCU…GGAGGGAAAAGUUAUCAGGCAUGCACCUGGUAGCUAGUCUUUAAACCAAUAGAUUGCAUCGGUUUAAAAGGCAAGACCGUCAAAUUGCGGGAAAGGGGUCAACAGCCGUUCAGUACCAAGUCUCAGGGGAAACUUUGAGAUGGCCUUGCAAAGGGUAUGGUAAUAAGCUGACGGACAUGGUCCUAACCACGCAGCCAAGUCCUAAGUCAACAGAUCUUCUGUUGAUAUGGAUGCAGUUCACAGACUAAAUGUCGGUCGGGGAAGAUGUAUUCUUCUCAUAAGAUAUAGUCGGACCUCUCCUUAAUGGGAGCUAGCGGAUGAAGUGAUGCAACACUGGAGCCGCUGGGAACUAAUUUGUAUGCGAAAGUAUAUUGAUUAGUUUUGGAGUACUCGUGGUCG
# measurement.parameters: 30 °C

>  <residue.sequence>
ACACAGCAAUAUUACGGUGU

>  <self-splicing fitness (ln)>
-5.22

$$$$
>  <residue.sequence>
GCCAAGCAAUAUUACGCUGA

>  <self-splicing fitness (ln)>
-1.4

$$$$
>  <residue.sequence>
CGAGAGCAAUAUUACGUAUU

>  <self-splicing fitness (ln)>
-2.53

$$$$
>  <residue.sequence>
AAACAGCAAUAUUACGUUGG

>  <self-splicing fitness (ln)>
-3.61

$$$$
>  <residue.sequence>
GCACAGCAAUAUUACGUGCA

>  <self-splicing fitness (ln)>
-3.1

$$$$
>  <residue.sequence>
CCGCAGCAAUAUUACGGCUU

>  <self-splicing fitness (ln)>
-4.44

$$$$
>  <residue.sequence>
GUCAAGCAAUAUUACGUUAA

>  <self-splicing fitness (ln)>
-2.02

$$$$
>  <residue.sequence>
GAUUAGCAAUAUUACGUCCC

>  <self-splicing fitness (ln)>
-0.907

$$$$

----------
# assay: self-splicing fitness, log relative to wild type (ln ratio); higher = more splicing; Tetrahymena group I intron in knt gene, E. coli kanamycin selection, DiMSum; sequences stand for … in CUCUCU…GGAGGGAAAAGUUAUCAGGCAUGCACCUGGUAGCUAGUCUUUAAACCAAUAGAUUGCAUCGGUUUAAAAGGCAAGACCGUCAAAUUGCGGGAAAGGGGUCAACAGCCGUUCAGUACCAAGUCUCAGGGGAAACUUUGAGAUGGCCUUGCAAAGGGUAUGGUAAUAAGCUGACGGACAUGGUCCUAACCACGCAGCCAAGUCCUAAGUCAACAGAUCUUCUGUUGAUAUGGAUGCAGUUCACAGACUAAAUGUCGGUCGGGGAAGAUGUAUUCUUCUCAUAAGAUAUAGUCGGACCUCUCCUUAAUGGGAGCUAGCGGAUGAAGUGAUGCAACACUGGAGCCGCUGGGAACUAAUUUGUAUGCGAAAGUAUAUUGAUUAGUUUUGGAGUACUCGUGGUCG
# measurement.parameters: 37 °C

>  <residue.sequence>
CGCCAGCAAUAUUACGAACC

>  <self-splicing fitness (ln)>
-2.02

$$$$
>  <residue.sequence>
AUCGAGCAAUAUUACGCACA

>  <self-splicing fitness (ln)>
-0.76

$$$$
>  <residue.sequence>
GGUUAGCAAUAUUACGGGUG

>  <self-splicing fitness (ln)>
-1.08

$$$$
>  <residue.sequence>
AUAAAGCAAUAUUACGUAGC

>  <self-splicing fitness (ln)>
-1.26

$$$$
>  <residue.sequence>
ACGCAGCAAUAUUACGGCUG

>  <self-splicing fitness (ln)>
-3.01

$$$$
>  <residue.sequence>
AAAAAGCAAUAUUACGUAUA

>  <self-splicing fitness (ln)>
-1.5

$$$$
>  <residue.sequence>
ACAGAGCAAUAUUACGGUCA

>  <self-splicing fitness (ln)>
-0.944

$$$$
>  <residue.sequence>
GAAAAGCAAUAUUACGUCUU

>  <self-splicing fitness (ln)>
0.391

$$$$
>  <residue.sequence>
AGACAGCAAUAUUACGGUGU

>  <self-splicing fitness (ln)>
-2.59

$$$$
>  <residue.sequence>
UAUAAGCAAUAUUACGGGUA

>  <self-splicing fitness (ln)>
0.401

$$$$
>  <residue.sequence>
UCCCAGCAAUAUUACGCCUA

>  <self-splicing fitness (ln)>
-1.34

$$$$
>  <residue.sequence>
CAGGAGCAAUAUUACGACGG

>  <self-splicing fitness (ln)>
-0.588

$$$$
>  <residue.sequence>
AUUUAGCAAUAUUACGGGAC

>  <self-splicing fitness (ln)>
-1.32

$$$$
>  <residue.sequence>
GCUAAGCAAUAUUACGCUCU

>  <self-splicing fitness (ln)>
0.486

$$$$
>  <residue.sequence>
GGAAAGCAAUAUUACGGGUG

>  <self-splicing fitness (ln)>
-1.78

$$$$
>  <residue.sequence>
UAAGAGCAAUAUUACGGUCG

>  <self-splicing fitness (ln)>
-1.85

$$$$
>  <residue.sequence>
UCGCAGCAAUAUUACGUUCU

>  <self-splicing fitness (ln)>
-2.31

$$$$
>  <residue.sequence>
CCGAAGCAAUAUUACGUGAA

>  <self-splicing fitness (ln)>
-2.82

$$$$
>  <residue.sequence>
UGGGAGCAAUAUUACGCAUC

>  <self-splicing fitness (ln)>
-2.58

$$$$
>  <residue.sequence>
UCUUAGCAAUAUUACGAAAA

>  <self-splicing fitness (ln)>
-0.128

$$$$
>  <residue.sequence>
GGUCAGCAAUAUUACGGUUU

>  <self-splicing fitness (ln)>
0.264

$$$$
>  <residue.sequence>
ACGAAGCAAUAUUACGUACA

>  <self-splicing fitness (ln)>
-1.06

$$$$
>  <residue.sequence>
UUAAAGCAAUAUUACGUUCG

>  <self-splicing fitness (ln)>
-0.157

$$$$
>  <residue.sequence>
CUUGAGCAAUAUUACGGUAC

>  <self-splicing fitness (ln)>
-2.16

$$$$
>  <residue.sequence>
AAGUAGCAAUAUUACGUGAU

>  <self-splicing fitness (ln)>
-1.77

$$$$
>  <residue.sequence>
CUGUAGCAAUAUUACGUGGC

>  <self-splicing fitness (ln)>
0.0373

$$$$
